assay_explanation: NCI Yeast Anticancer Drug Screen. Data for the mec2-1 strain (AID 157)
recorded_conditions: S. cerevisiae mec2-1 strain, at 50.0 µM, active compounds read high
This is part of a sample that, as a whole, favours compounds with a hit. Of some 79,000 tested, about 15% had one in any assay.
measured_property: growth inhibition (%)
Your answer should be a plain number; it is taken to be in %.

# count of solved cases: 5
{"molecule": "Cc1cccnc1C", "growth inhibition [%]": -7.25}
{"molecule": "N=C(N)SCc1ccc(Cl)cc1Cl (tested in a mixture with another compound)", "growth inhibition [%]": 12.3}
{"molecule": "CNn1c(C)n[nH]c1=O", "growth inhibition [%]": -15.8}
{"molecule": "N#CSCc1cc(Cl)c(CSC#N)c(Cl)c1Cl", "growth inhibition [%]": 22.2}
{"molecule": "CCCCC1CC(c2ccc(Cl)cc2)=NO1 (centres undefined)", "growth inhibition [%]": -7}

input: What value of measured growth inhibition is listed for COC(=O)C(C)CC(C)C(=O)OC (centres undefined) ?
output: -15.8

input: Which measured growth inhibition value corresponds to O=C1CCc2cc3c(cc21)CC1(Cc2cc4c(cc2C1)CCCC4)C3 ?
output: -8.8

input: State the recorded growth inhibition for this entry: O=C1CCC23CC(C=CC=C12)n1c(=O)n(-c2ccccc2)c(=O)n13 (centres undefined)
output: -1.55

input: Record request: growth inhibition value, item CN(C)c1ccc(/C=C(\C#N)C(=O)c2ccccc2)cc1Br
output: -6.1

input: Find the recorded growth inhibition belonging to O=c1n(-c2ccccc2)c(=O)n2c(=O)n(-c3ccccc3)c(=O)n12 and report it.
output: -1.55

input: Which measured growth inhibition value corresponds to COc1cc2c(cc1OC)C1CCN3CCCC3N1CC2 (centres undefined) ?
output: 7.6

input: State the recorded growth inhibition for this entry: Cc1ccc(/C=C/C(=N/NC(=O)c2ccccc2)C(C)CN(C)C)cc1 (centres undefined)
output: 5.65

input: Which growth inhibition value belongs to Cc1cccc(/C=N/Nc2ccc([N+](=O)[O-])cc2[N+](=O)[O-])c1C ?
output: -6
